experiment description: qHTS RealTime-Glo MT Cell Viability Assay in HepG2 cells - 16 hour (AID 1224885); note: nearly all actives have a fitted effect of over 50% in size
condition label: RealTime-Glo luminescence; series mostly up to 76.8 µM
Records with an inconclusive call do not appear. Active and inactive are the calls of the source. Calls come from the whole dose curve; as a rule, active = well fitted cell-killing curve with a large enough effect in the repeat runs; inconclusive = weak or mixed curves; inactive = flat fitted curve, though single readings scatter.
Answer with one of the outcomes given here: True (active), False (inactive)

(Q) For this molecule, state the assay outcome: `C/C=C/C=C/C=O`
(A) False

(Q) GET /call?item= `CCOc1ccc(Cc2nccc3cc(OCC)c(OCC)cc23)cc1OCC` returns the recorded outcome of this test.
(A) True

(Q) Could you please tell me the result logged for `CCCCCCCC/C=C\CCCCCCCCCCCC(=O)O` in this assay?
(A) False

(Q) Call for entry `CCC(C)(C)OC` :
(A) False

(Q) Dear all, I need the recorded test outcome for `O=Cc1c2ccccc2c(Cl)c2ccccc12` , thank you.
(A) False

(Q) Please let me know the test result on file for `CCCCOc1ccc(OCCCN2CCOCC2)cc1` .
(A) False

(Q) # outcome recorded in this test, key = `CC(=O)c1ccc([N+](=O)[O-])cc1`
(A) False

* * *

experiment description: qHTS assay to identify small molecule antagonists of the peroxisome proliferator-activated receptor gamma (PPARg) signaling pathway - cell viability counter screen (AID 743194); note: nearly all actives have a fitted effect of over 55% in size
condition label: PPARg-bla HEK293H viability, CellTiter-Glo luminescence, 17 h, co-treated with 50 nM rosiglitazone; series mostly up to 62.6 µM
Inconclusive results are not listed. Active and inactive are the calls of the source. The call rests on the fitted dose curve; in most records, active means well fitted cell-killing curve with a large enough effect in the repeat runs; inconclusive means weak or mixed curves, or effect the other way; inactive means no such curve, though single readings can be large or run the other way.
Hi there, use one of these labels in your reply, thanks! active, inactive

(Q) Hello, I am checking results. What call was entered for `C[C@@]12CCC[C@H]1[C@@H]1CC[C@H]3C[C@@H](O)CC[C@]3(C)[C@H]1CC2` ?
(A) inactive

(Q) What was the test verdict on `CC(C)(C)CC(=O)OCC(=O)[C@@]1(O)CC[C@H]2[C@@H]3CCC4=CC(=O)C=C[C@]4(C)[C@H]3[C@@H](O)C[C@@]21C` ?
(A) inactive

(Q) I would be grateful if you could indicate the recorded call for `COc1cc(C(=O)NCCCCCC(=O)O)cc(OC)c1OC` .
(A) inactive

(Q) Can you look up the reported call for `CCOC(=O)c1ccc(C#Cc2ccc3c(c2)C(C)(C)CCS3)nc1` for me?
(A) inactive

(Q) Recorded call for CCCCN(CCCC)C(C(N)=O)c1ccc(OC)cc1 (centres undefined) ?
(A) inactive

(Q) Could you check what this test reported for `OCCOCC#CCOCCO` ?
(A) inactive

(Q) Could you kindly confirm the outcome this assay logged for CC(C)COCC(CN(Cc1ccccc1)c1ccccc1)N1CCCC1 (centres undefined) ?
(A) active

(Q) Assay result, entry CC(CCC(=O)O)C(=O)O (centres undefined) — outcome?
(A) inactive

(Q) Could you check what this test reported for `CCOc1ccc(Cc2nccc3cc(OCC)c(OCC)cc23)cc1OCC` ?
(A) inactive

(Q) # outcome recorded in this test, key = `O=C(O)CCC(=O)C(=O)O`
(A) inactive

(Q) Any idea what this test logged for `CCCCCC#CC(=O)OC` ?
(A) inactive

(Q) Could you kindly confirm the outcome this assay logged for `CC(=O)[C@H]1[C@H](C#N)C[C@H]2[C@@H]3CC=C4C[C@@H](O)CC[C@]4(C)[C@H]3CC[C@@]21C` ?
(A) inactive

(Q) Called result for `CN1CC(=O)N2[C@H](c3ccc4c(c3)OCO4)c3[nH]c4ccccc4c3C[C@@H]2C1=O`
(A) inactive

(Q) Test call for this compound, please: `O[C@@H]1CO[C@H]2[C@@H]1OC[C@@H]2O`
(A) inactive

(Q) How was `CCCCCCCCCI` classified in this test?
(A) inactive

(Q) # lookup: test call for `CCCCCCCC/C=C\CCCCCCCCO`
(A) inactive

(Q) Would you mind telling me which call this test gave `O=C(OC(=O)c1ccccc1)c1ccccc1` ?
(A) inactive

(Q) Entry `C[C@H]1c2cccc(O)c2C(O)=C2C(=O)[C@]3(O)C(O)=C(C(N)=O)C(=O)[C@@H](N(C)C)[C@@H]3[C@@H](O)[C@@H]21` : call = ?
(A) inactive

(Q) Which outcome did this test record for the compound `Cc1cc(C)c(N)cc1C` ?
(A) inactive

(Q) Recorded test call requested for `CN1C(C(=O)Nc2ccccn2)=C(O)c2sccc2S1(=O)=O`
(A) inactive

(Q) GET /call?item= `CN(C)CCN1C(=O)c2ccccc2N(C)c2ccccc21` returns the recorded outcome of this test.
(A) inactive

(Q) What outcome does the record of this test show for CCC(=O)C1CC(C(C)C)CC=C1C (centres undefined) ?
(A) inactive

(Q) Call for entry `O=C(O)c1ccc(OCCCOc2ccc(C(=O)O)cc2)cc1` :
(A) inactive

(Q) Returns: the outcome recorded for `O=c1[nH]ncc2ccccc12` in this assay.
(A) inactive
